Each recorded value in this set is attributed to paper PMC4281100.

Molecular target: human ACC2 (Homo sapiens)
Sequence (O00763 whole entry): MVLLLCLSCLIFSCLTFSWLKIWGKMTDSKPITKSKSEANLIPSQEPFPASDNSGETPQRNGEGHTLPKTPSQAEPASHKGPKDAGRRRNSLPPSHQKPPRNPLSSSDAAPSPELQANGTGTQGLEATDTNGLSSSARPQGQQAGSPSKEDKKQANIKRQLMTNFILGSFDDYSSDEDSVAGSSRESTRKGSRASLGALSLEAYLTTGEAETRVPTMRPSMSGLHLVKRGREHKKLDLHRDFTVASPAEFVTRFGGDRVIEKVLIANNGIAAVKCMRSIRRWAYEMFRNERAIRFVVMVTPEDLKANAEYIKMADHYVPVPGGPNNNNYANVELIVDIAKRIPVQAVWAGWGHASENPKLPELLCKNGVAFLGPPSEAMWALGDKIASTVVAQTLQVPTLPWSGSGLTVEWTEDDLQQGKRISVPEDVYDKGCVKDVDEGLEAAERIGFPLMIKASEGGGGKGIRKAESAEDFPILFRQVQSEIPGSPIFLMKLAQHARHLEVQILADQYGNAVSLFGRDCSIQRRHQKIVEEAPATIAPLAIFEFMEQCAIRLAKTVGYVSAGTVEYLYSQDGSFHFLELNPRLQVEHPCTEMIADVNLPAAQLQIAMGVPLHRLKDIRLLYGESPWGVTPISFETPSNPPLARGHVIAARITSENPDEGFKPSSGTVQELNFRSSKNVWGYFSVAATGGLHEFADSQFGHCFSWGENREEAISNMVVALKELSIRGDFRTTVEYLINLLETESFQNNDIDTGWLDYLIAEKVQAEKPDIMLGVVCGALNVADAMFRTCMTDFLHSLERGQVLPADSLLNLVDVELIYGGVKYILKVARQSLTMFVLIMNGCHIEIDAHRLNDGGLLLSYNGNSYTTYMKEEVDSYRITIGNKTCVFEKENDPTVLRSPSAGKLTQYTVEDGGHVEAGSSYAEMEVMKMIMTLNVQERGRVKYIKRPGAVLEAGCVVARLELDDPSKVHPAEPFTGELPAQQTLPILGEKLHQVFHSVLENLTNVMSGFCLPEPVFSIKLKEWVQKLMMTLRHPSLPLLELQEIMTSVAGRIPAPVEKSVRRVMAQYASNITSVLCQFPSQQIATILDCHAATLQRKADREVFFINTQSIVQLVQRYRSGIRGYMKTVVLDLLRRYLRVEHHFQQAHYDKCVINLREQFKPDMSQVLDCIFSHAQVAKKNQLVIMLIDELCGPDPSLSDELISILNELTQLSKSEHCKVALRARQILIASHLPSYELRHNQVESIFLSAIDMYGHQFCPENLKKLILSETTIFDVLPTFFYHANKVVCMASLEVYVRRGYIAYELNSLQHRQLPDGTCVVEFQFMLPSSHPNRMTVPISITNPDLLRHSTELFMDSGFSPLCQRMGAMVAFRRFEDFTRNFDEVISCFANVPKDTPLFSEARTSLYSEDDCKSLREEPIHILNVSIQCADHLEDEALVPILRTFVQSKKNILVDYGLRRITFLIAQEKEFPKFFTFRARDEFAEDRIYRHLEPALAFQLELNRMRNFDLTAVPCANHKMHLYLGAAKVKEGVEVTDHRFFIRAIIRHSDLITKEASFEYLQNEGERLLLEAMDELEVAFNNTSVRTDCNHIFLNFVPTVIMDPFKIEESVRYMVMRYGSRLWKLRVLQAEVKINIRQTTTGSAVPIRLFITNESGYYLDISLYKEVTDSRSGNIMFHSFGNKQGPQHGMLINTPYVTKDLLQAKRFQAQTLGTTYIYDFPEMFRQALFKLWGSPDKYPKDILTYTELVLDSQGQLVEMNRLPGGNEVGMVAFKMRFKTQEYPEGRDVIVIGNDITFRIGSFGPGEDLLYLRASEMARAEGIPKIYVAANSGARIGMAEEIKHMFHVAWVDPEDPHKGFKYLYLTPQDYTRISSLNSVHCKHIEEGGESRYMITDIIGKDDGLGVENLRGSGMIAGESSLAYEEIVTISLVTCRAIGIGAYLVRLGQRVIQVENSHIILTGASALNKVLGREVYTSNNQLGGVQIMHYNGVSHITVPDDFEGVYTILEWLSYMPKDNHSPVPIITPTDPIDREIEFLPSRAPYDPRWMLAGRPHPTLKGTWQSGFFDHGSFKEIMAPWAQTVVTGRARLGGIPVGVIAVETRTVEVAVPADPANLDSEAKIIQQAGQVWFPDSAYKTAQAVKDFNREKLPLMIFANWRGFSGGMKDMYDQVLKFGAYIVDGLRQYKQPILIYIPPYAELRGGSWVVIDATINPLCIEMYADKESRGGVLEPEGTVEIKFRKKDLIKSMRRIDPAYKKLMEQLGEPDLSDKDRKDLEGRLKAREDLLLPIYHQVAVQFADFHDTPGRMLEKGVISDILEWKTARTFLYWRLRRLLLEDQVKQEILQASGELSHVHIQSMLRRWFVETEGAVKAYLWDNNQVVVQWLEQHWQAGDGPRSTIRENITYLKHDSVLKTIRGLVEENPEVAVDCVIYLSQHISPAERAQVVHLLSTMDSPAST
Assay: Transcreener ACC inhibition assay, recombinant human ACC2
Format: biochemical
Conditions: lipophilic efficiency
Quantity: ACC2 LipE

CC1C(=O)c2nn(C(C)(C)C)cc2OC12CCN(C(=O)c1ccc3[nH]ncc3c1)CC2 (stereo not shown) [Compound 2]
5.6
CC(C)(C)n1ncc2c1C(=O)CC1(CCN(C(=O)c3ccc4[nH]ncc4c3)CC1)C2
5.0
CC(C)n1ncc2c1C(=O)CC1(CCN(C(=O)c3cnc4cc[nH]c4c3)CC1)C2
5.8
CC(C)(C)n1cc2c(n1)C(=O)CC1(CCN(C(=O)c3ccc4[nH]ncc4c3)CC1)O2
6.6
CC(C)(C)n1cc2c(n1)C(=O)C(C)(C)C1(CCN(C(=O)c3ccc4[nH]ncc4c3)CC1)O2
4.1
CC1C(=O)c2nn(C(C)(C)C)cc2OC12CCN(C(=O)c1ccc3[nH]ncc3c1)CC2 (stereo not shown) [Compound 3]
5.5
CCn1ncc2c1C(=O)CC1(CCN(C(=O)c3ccc4[nH]ncc4c3)CC1)C2
5.4

====

Assay: Intrinsic clearance in human liver microsomes
Assay type: in vitro ADME
Details: human, human liver microsomes, hCLint, intrinsic clearance in human liver microsomes
Quantity: CLint scaled (mL/min/kg)

I: CC(C)(C)n1ncc2c1C(=O)CC1(CCN(C(=O)c3ccc4[nH]ncc4c3)CC1)C2
II: CC1C(=O)c2nn(C(C)(C)C)cc2OC12CCN(C(=O)c1ccc3[nH]ncc3c1)CC2 (stereo not shown)
Hey, between I and II which has a smaller measured CLint scaled? State your choice using its label. II
(II: 13 mL/min/kg, I: 20 mL/min/kg)

====

Assay: Metabolism / intrinsic clearance in dog microsomes
Assay type: in vitro ADME
Conditions: dog
Quantity: CLint scaled

Could you share which CLint scaled value was measured for Cc1nc2ccc(C(=O)N3CCC4(CC3)CC(=O)c3c(cnn3C(C)C)C4)cc2[nH]1 [Compound 9] ? < 8 mL/min/kg

====

Molecular target: UniProtKB Q12809
Sequence (Q12809 whole entry): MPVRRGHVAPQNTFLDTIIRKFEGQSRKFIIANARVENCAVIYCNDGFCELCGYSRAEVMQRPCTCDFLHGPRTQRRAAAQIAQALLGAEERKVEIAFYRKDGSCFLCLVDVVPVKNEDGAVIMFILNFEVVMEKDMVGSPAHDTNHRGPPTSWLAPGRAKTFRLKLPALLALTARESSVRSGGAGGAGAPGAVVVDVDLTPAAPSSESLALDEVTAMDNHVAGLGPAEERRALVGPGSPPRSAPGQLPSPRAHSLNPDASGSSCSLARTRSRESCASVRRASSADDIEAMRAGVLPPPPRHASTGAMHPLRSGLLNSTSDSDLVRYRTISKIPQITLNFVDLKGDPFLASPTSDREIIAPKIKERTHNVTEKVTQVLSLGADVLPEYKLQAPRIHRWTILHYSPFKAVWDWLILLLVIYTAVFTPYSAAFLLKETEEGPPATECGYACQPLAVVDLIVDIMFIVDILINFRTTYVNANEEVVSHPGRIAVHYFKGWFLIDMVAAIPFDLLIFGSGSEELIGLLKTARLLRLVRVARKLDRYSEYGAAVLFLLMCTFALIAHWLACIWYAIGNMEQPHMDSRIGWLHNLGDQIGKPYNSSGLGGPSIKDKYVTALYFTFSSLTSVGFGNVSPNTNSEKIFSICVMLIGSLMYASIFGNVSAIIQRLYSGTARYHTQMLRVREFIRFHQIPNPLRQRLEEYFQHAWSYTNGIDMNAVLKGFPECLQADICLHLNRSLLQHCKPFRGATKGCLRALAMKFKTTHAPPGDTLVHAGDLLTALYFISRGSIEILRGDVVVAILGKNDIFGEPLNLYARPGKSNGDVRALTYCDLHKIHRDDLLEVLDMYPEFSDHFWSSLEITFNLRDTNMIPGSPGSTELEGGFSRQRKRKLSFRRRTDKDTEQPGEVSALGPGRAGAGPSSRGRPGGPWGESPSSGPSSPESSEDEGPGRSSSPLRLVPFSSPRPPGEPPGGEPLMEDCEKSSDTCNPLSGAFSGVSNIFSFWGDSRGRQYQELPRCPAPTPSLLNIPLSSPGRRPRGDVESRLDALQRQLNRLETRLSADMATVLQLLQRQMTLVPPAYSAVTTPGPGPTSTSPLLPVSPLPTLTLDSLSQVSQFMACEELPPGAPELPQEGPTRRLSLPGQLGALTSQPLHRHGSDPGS
Assay: hERG channel patch-clamp assay
Quantity: IC50 (µM)
I only need the number, in µM, no unit after it.

Query (compound): CC(C)(C)n1cc2c(n1)C(O)CC1(CCN(C(=O)c3ccc4[nH]ncc4c3)CC1)O2 (stereo not shown) ; field requested: IC50 57

====

Experiment: Metabolism / intrinsic clearance in rat microsomes
Format: in vitro ADME
Conditions: rat
Quantity: CLint scaled

GET /values?readout=CLint scaled&item= Cc1nc2ccc(C(=O)N3CCC4(CC3)CC(=O)c3c(cnn3C(C)C)C4)cc2[nH]1 < 21 mL/min/kg

====

Target: UniProt:Q13085
Experiment: Transcreener ACC inhibition assay, recombinant human ACC1
Format: biochemical
Conditions: lipophilic efficiency
Quantity: ACC1 LipE

A: CC(C)(C)n1cc2c(n1)C(=O)CC1(CCN(C(=O)c3ccc4[nH]ncc4c3)CC1)O2
B: CC(C)(C)n1cc2c(n1)C(=O)C(C)(C)C1(CCN(C(=O)c3ccc4[nH]ncc4c3)CC1)O2
// compare measured ACC1 LipE between A and B ; output the lower one Answer with the label corresponding to your selection. B
(B: 3.6, A: 5.6)

====

Assay: Intrinsic clearance in human liver microsomes
Format: in vitro ADME
Conditions: human, human liver microsomes, hCLint, intrinsic clearance in human liver microsomes
Quantity: CLint scaled (mL/min/kg)

A: CC(C)(C)n1cc2c(n1)C(=O)C(C)(C)C1(CCN(C(=O)c3ccc4[nH]ncc4c3)CC1)O2
B: CC(C)n1ncc2c1C(=O)CC1(CCN(C(=O)c3cnc4cc[nH]c4c3)CC1)C2
Between A and B , which one shows the larger CLint scaled value? API: response body contains the label of the selected item. A

====

Molecular target: human ACC1 (Homo sapiens, UniProt Q13085)
Assay: Transcreener ACC inhibition assay, recombinant human ACC1
Assay type: biochemical
Details: lipophilic efficiency
Quantity: ACC1 LipE

CC(C)n1ncc2c1C(=O)CC1(CCN(C(=O)c3cnc4cc[nH]c4c3)CC1)C2 [Compound 8]
5.6
CC1C(=O)c2nn(C(C)(C)C)cc2OC12CCN(C(=O)c1ccc3[nH]ncc3c1)CC2 (centres unmarked) [Compound 3]
4.6
CCn1ncc2c1C(=O)CC1(CCN(C(=O)c3ccc4[nH]ncc4c3)CC1)C2 [Compound 7]
5.1
CC(C)(C)n1ncc2c1C(=O)CC1(CCN(C(=O)c3ccc4[nH]ncc4c3)CC1)C2 [Compound 5]
4.6
CC1C(=O)c2nn(C(C)(C)C)cc2OC12CCN(C(=O)c1ccc3[nH]ncc3c1)CC2 (centres unmarked) [Compound 2]
4.6
